Biological target: T1, DDX3Y peptide on HLA-A*02:01 (human)
T1 peptide: FLLDILGAT
Test: killing
measurement label: binding result

binder="Clone15-3F10 (TCR, V domains shown) Valpha: AQTVTQSQPEMSVQEAETVTLSCTYDTSENNYYLFWYKQPPSRQMILVIRQEAYKQQNATENRFSVNFQKAAKSFSLKISDSQLGDTAMYFCASMYSGGGADGLTFGKGTHLIIQP Vbeta: EAQVTQNPRYLITVTGKKLTVTCSQNMNHEYMSWYRQDPGLGLRQIYYSMNVEVTDKGDVPEGYKVSRKEKRNFPLILESPSPNQTSLYFCASSFFSNTGELFFGEGSRLTVL" measurement_label="binding result" assay_value="no recognition"
binder="Clone19-5C2 (TCR, V domains shown) Valpha: AQTVTQSQPEMSVQEAETVTLSCTYDTSESDYYLFWYKQPPSRQMILVIRQEAYKQQNATENRFSVNFQKAAKSFSLKISDSQLGDAAMYFCAYRSGSDGGSQGNLIFGKGTKLSVKP Vbeta: ETGVTQTPRHLVMGMTNKKSLKCEQHLGHNAMYWYKQSAKKPLELMFVYSLEERVENNSVPSRFSPECPNSSHLFLHLHTLQPEDSALYLCASSQVSGYEQYFGPGTRLTVT" measurement_label="binding result" assay_value="no recognition"
binder="Clone21-7A10 (TCR, V domains shown) Valpha: GQSLEQPSEVTAVEGAIVQINCTYQTSGFYGLSWYQQHDGGAPTFLSYNALDGLEETGRFSSFLSRSDSYGYLLLQELQMKDSASYFCAVRDDYGQNFVFGPGTRLSVLP Vbeta: NAGVMQNPRHLVRRRGQEARLRCSPMKGHSHVYWYRQLPEEGLKFMVYLQKENIIDESGMPKERFSAEFPKEGPSILRIQQVVRGDSAAYFCASSPQGDNEQFFGPGTRLTVL" measurement_label="binding result" assay_value="no recognition"

# credit: patent US20220267403A1
